Measured pIC50 values are reported for all entries that follow.
assay_system: Rap guanine nucleotide exchange factor 3 (Homo sapiens)
protocol_text: Binding affinity to GST-tagged recombinant EPAC1 CNBD (169 to 318 residues) (unknown origin) expressed in Escherichia coli BL21 Star (DE3) incubated for 4 hrs by 8-NBD-cAMP competition binding assay
By convention, pIC50 is the negative base-10 log of a molar concentration.

smiles_string	quantity_name	measured
Cc1cc(Nc2ncccc2C(F)(F)F)cc(S(=O)(=O)NC(=O)COc2ccc3ccccc3c2)c1	pIC50	5.34

Next molecule, pIC50 to be filled in.
Query O=C(COc1ccc2ccccc2c1)NS(=O)(=O)c1ccc([N+](=O)[O-])c(F)c1 yields pIC50 of 4.49

====

assay_system: Rap guanine nucleotide exchange factor 3 (Homo sapiens, UniProt O95398)
Sequence (O95398 whole entry): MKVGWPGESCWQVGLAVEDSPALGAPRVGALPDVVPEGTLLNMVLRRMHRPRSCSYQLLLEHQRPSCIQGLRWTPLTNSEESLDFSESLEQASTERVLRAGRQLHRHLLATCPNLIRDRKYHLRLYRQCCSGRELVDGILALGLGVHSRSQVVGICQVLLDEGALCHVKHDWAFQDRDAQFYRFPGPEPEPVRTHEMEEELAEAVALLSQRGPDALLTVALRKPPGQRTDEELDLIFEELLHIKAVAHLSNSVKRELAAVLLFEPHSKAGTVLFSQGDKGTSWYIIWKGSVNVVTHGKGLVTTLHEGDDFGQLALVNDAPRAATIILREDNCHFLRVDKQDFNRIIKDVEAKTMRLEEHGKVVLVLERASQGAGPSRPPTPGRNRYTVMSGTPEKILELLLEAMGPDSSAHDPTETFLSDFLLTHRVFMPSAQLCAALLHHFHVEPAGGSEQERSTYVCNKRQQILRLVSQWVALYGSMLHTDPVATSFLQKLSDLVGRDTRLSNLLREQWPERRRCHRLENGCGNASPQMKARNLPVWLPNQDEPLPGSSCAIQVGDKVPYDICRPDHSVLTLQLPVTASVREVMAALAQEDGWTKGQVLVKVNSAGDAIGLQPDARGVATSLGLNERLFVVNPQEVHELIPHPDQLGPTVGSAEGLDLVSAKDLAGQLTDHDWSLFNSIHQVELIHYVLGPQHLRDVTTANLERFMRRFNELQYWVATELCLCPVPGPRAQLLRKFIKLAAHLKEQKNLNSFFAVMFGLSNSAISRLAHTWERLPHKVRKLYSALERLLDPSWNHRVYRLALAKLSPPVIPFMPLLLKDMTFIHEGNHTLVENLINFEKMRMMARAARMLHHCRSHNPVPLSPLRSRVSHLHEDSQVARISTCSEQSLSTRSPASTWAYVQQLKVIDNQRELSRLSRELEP
protocol_text: Activation of recombinant EPAC1 (149 to 881 residues) (unknown origin) assessed as stimulation of dissociation of fluorescent MANT-GDP from recombinant Rap1b in presence of excess nonfluorescent nucleotides by fluorescence based in-vitro GEF assay
Measured pEC50 values are reported for all entries that follow.
By convention, pEC50 is the negative base-10 log of a molar concentration.

Please review the entries below; each comes with its answer.
smiles_string	measured
COc1ccc(S(=O)(=O)NC(=O)COc2ccc3ccccc3c2)c(OC)c1	5.30
COc1ccc2ccc(OCC(=O)NS(=O)(=O)c3ccc(N)cc3OC)cc2c1	5.30

Next compound, pEC50 to be filled in.
Query COc1ccc2ccc(OCC(=O)NS(=O)(=O)c3ccc4ccccc4c3)cc2c1 yields pEC50 of 5.30

====

assay_system: Rap guanine nucleotide exchange factor 3 (Homo sapiens)
Sequence (whole entry): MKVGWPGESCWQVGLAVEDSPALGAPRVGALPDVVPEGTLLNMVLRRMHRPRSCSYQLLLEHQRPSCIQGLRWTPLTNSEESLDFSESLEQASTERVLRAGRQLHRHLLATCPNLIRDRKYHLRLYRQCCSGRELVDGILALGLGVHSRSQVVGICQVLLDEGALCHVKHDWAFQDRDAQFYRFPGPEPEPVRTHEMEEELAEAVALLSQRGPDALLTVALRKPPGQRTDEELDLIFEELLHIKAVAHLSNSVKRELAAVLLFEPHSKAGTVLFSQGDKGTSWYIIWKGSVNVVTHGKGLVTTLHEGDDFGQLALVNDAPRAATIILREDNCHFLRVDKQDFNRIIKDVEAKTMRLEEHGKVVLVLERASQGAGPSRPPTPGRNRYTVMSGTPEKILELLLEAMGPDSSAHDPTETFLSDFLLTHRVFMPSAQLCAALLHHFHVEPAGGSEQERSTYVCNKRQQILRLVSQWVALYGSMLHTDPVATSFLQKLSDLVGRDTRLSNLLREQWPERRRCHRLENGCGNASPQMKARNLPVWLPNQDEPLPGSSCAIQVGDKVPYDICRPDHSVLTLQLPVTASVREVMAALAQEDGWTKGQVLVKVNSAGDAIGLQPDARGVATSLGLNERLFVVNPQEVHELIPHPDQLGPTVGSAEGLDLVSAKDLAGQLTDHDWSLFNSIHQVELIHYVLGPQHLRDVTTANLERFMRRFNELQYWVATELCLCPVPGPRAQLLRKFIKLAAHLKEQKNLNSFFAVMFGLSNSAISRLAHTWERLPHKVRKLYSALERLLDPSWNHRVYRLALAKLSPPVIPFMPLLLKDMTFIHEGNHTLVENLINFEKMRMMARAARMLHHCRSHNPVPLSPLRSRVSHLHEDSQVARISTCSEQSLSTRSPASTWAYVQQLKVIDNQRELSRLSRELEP
protocol_text: Binding affinity to GST-tagged recombinant EPAC1 CNBD (169 to 318 residues) (unknown origin) expressed in Escherichia coli BL21 Star (DE3) assessed as relative fluorescence intensity incubated for 4 hrs by 8-NBD-cAMP competition binding assay relative to control
Set-up: concentration or dose not given beside the values
quantity_name: Activity

compound	quantity_name	measured
Cc1cc(C)c(S(=O)(=O)NC(=O)COc2ccc3c(c2)NC(=O)CC3)c(C)c1	Activity	77%
COc1ccc2ccc(OCC(=O)NS(=O)(=O)c3ccc4ccccc4c3)cc2c1	Activity	14%
COc1ccc2ccc(OCC(=O)NS(=O)(=O)c3ccc(OC)c(OC)c3)cc2c1	Activity	23%
O=C(COc1ccc2ccccc2c1)NS(=O)(=O)c1cccc(-c2ccoc2)c1	Activity	53%
O=C(COc1ccc2ccccc2c1)NS(=O)(=O)c1ccc([N+](=O)[O-])c(F)c1	Activity	81%

Query Cc1cc(C)c(S(=O)(=O)NC(=O)C(F)Oc2ccc3ccccc3c2)c(C)c1 (stereo unspecified) yields Activity of 82%

Query Cc1cc(-c2cncc(F)c2)cc(S(=O)(=O)NC(=O)COc2ccc3ccccc3c2)c1 yields Activity of 36%

====

assay_system: Rap guanine nucleotide exchange factor 3 (Homo sapiens) (UniProt O95398)
protocol_text: Binding affinity to GST-tagged recombinant EPAC1 CNBD (169 to 318 residues) (unknown origin) expressed in Escherichia coli BL21 Star (DE3) assessed as relative fluorescence intensity incubated for 4 hrs by 8-NBD-cAMP competition binding assay relative to control
Design: concentration or dose not given beside the values
quantity_name: Activity (%)
Respond with the bare value in %.

Please review the entries below; each comes with its answer.
smiles_string	assay_system	quantity_name	measured
Cc1cc(C)c(S(=O)(=O)NC(=O)COc2ccc3ccccc3c2)c(C)c1	Rap guanine nucleotide exchange factor 3 (Homo sapiens) (UniProt O95398)	Activity	81
O=C(COc1ccc2ccccc2c1)NS(=O)(=O)C1CCCCC1	Rap guanine nucleotide exchange factor 3 (Homo sapiens) (UniProt O95398)	Activity	81
Cc1ccc(S(=O)(=O)NC(=O)COc2ccc3[nH]ncc3c2)c(C)c1	Rap guanine nucleotide exchange factor 3 (Homo sapiens) (UniProt O95398)	Activity	94

Query CC(=O)c1c(OCC(=O)NS(=O)(=O)c2c(C)cc(C)cc2C)ccc2ccccc12 yields Activity of 104

Query Cc1ccc(S(=O)(=O)NC(=O)COc2cccc3ccccc23)c(C)c1 yields Activity of 71

Query Cc1cc(-c2ccnn2C)cc(S(=O)(=O)NC(=O)COc2ccc3ccccc3c2)c1 yields Activity of 34

Query Cc1cc(Nc2ncccc2C(F)(F)F)cc(S(=O)(=O)NC(=O)COc2ccc3ccccc3c2)c1 yields Activity of 56

Query Cc1ccc(S(=O)(=O)NCCOc2ccc3ccccc3c2)c(C)c1 yields Activity of 81

====

assay_system: Rap guanine nucleotide exchange factor 3 (Homo sapiens)
protocol_text: Activation of EPAC1 in HUVEC assessed as reduction in IL-6-promoted signaling by measuring VCAM1 protein expression at 100 uM pre-incubated for 30 mins before IL6 and sIL6Ralpha stimulation for 5 hrs by Western blotting analysis
Type: cell-based
Active and inactive are the calls of the source. No cut-off for these calls is given here.
quantity_name: Activity

Please review the entries below; each comes with its answer.
smiles_string	Activity
Cc1cc(Nc2ncccc2C(F)(F)F)cc(S(=O)(=O)NC(=O)COc2ccc3ccccc3c2)c1	Active
COc1ccc2ccc(OCC(=O)NS(=O)(=O)c3ccc(N)cc3OC)cc2c1	inactive
Cc1ccc(S(=O)(=O)NC(=O)COc2ccc3ccccc3c2)c(C)c1	Active
O=C(COc1ccc2ccccc2c1)NS(=O)(=O)c1ccc([N+](=O)[O-])c(F)c1	inactive

Query Nc1ccc(S(=O)(=O)NC(=O)COc2ccc3ccccc3c2)cc1F yields Activity of inactive
